Each entry below carries its reported AC50.
Molecular target: PK R510Q (Homo sapiens, UniProt P30613, R510Q)
Sequence (P30613 whole entry R510Q): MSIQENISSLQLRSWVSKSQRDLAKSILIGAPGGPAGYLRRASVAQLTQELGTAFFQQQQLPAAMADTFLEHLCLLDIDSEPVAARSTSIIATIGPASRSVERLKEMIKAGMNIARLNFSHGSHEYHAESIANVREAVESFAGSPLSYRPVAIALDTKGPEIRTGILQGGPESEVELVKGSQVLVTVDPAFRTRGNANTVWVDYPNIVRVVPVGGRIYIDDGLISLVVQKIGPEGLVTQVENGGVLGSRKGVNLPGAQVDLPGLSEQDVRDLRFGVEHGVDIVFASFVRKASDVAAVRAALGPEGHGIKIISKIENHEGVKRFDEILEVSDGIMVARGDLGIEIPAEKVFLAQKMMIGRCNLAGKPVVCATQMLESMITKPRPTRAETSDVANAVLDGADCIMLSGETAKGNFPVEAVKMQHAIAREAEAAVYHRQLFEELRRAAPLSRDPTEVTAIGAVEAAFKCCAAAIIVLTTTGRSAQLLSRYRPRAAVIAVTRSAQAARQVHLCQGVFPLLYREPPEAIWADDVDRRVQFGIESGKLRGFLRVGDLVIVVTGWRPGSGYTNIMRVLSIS
Experiment: PKR Mutant Assay (R510Q), LDH-coupled, absorbance 340 nm
Type: biochemical
Conditions: mutant PKR R510Q enzyme activation

Example molecules with recorded AC50:
{"smiles str": "COc1cccc(CN2Cc3c(n(C)c4cc(C)sc34)C2=O)c1", "AC50": "> 800 nM"}
{"smiles str": "COc1cccc(Cn2ncc3c4nn(C)cc4n(C)c3c2=O)c1", "AC50": "> 800 nM"}

Can you look up the measured AC50 of Cn1ccc(Cn2ncc3c4ccc(Cc5cscn5)cc4n(C)c3c2=O)n1 for me?
< 300 nM

Now the same for Cc1c2c(=O)n(Cc3ccc4[nH]ncc4c3)ncc2c2sc(Cc3ccccn3)cn12
< 300 nM

Now the same for Cn1c2cc(S(C)(=O)=O)ccc2c2cnn(Cc3cccc(C(N)=O)c3)c(=O)c21
< 300 nM
